Sourced from ChEMBL document CHEMBL1667722

pIC50: −log10 of the molar value.
Quick record: pIC50, Xanthine dehydrogenase/oxidase (Homo sapiens, UniProt P47989).

Send back Xanthine dehydrogenase/oxidase (Homo sapiens, UniProt P47989) pIC50 of CCCC(=O)CC[C@H]1OC(=O)c2c1cc(OC)c(OC)c2O [COLLETOTRIALIDE] only.
< 3.19

Others:
Lab note: Xanthine dehydrogenase/oxidase (Homo sapiens, UniProt P47989) assay, enter pIC50 for "CCC[C@H]1C[C@H]2OC(=O)c3c(cc(OC)c(O)c3O)[C@H]2O1" here
Sequence (P47989 whole entry): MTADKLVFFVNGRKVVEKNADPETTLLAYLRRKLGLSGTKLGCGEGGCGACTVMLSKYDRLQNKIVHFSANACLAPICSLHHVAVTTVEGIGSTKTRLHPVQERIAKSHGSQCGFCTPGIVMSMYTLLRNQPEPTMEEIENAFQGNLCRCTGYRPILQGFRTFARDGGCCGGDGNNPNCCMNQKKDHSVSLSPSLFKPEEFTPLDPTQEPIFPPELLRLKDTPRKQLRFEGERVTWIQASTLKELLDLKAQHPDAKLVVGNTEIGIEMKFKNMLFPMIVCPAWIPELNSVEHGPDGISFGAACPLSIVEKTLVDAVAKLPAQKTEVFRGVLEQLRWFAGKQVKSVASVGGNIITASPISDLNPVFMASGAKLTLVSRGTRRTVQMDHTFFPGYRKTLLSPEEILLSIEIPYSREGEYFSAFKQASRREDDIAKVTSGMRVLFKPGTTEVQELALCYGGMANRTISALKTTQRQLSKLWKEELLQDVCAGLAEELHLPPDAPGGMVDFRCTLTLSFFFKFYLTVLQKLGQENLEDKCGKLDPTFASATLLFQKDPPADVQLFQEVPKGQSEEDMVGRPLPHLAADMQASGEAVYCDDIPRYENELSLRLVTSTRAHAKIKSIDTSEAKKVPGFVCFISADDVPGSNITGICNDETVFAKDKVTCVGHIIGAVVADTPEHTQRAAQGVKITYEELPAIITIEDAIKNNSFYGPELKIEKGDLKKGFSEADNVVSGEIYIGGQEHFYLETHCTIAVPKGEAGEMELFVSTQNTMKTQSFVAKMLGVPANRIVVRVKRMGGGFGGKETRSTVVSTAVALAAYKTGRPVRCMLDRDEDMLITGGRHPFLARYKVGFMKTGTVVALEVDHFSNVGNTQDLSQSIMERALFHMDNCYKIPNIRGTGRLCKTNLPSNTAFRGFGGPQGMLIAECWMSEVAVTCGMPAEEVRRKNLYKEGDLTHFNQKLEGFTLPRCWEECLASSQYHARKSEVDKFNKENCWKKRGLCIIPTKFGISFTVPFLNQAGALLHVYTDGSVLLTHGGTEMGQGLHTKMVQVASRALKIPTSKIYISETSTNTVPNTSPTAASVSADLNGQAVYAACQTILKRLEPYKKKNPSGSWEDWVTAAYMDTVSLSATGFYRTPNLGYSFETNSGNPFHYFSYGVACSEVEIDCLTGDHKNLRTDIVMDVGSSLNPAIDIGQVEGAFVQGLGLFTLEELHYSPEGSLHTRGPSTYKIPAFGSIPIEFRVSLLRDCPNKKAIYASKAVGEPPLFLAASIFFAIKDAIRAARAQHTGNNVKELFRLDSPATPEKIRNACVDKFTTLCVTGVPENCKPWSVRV
< 3.17

Determine reported pIC50 for CCC[C@H]1C[C@H]2OC(=O)c3c(cc(OC)c(OC)c3O)[C@H]2O1 [MONOCERIN] ; test system: Xanthine dehydrogenase/oxidase (Homo sapiens, UniProt P47989).
< 3.19

* * *

- Experiment description: Antioxidant activity assessed as inhibition of xanthine-xanthine oxidase generated superoxide anion radical production
- Type: functional
Below is a list of entries, each paired with its recorded pIC50 value.
// pIC50 is dimensionless: -log10 of concentration (M)

Provide only the value of recorded pIC50 for "CCC[C@H]1C[C@H]2OC(=O)c3c(cc(OC)c(O)c3O)[C@H]2O1"
4.28

Further cases:
State, in one line, measured pIC50 of "Oc1ncnc2[nH]ncc12"
5.52

Give the reported pIC50 for this compound. "CCC[C@@H](O)C[C@H]1OC(=O)c2c(cc(OC)c(OC)c2O)[C@H]1O"
3.45

Answer with the recorded pIC50 for the compound listed here: "CCC[C@H](O)C[C@@H]1Cc2cc(OC)c(O)c(O)c2C(=O)O1"
5.37

* * *

Property: log10(IC50); scope: individual molecules
- System: MOLT-3
- Experiment description: Cytotoxicity against human MOLT3 cells by XTT assay
- Type: functional, cell-based
A value of 2 here means IC50 of 100 in µM, since values are log10.

Solved entries (count: 4):
# lookup: MOLT-3 log10(IC50), key = CCC[C@H]1C[C@H]2OC(=O)c3c(cc(OC)c(OC)c3O)[C@H]2O1 [MONOCERIN]
2.18

Send back MOLT-3 log10(IC50) of CCCC(=O)CC[C@H]1OC(=O)c2c1cc(OC)c(OC)c2O [COLLETOTRIALIDE] only.
2.17

Report the value of log10(IC50) obtained on MOLT-3 for COc1cc([C@@H]2c3cc4c(cc3[C@@H](O[C@@H]3O[C@@H]5CO[C@@H](C)O[C@H]5[C@H](O)[C@H]3O)[C@H]3COC(=O)[C@H]23)OCO4)cc(OC)c1O [ETOPOSIDE] .
-1.52

Please indicate recorded log10(IC50) of "CCC[C@H]1C[C@H]2OC(=O)c3c(cc(OC)c(O)c3O)[C@H]2O1" measured with MOLT-3.
2.09

Proceed to the following item.
Using MOLT-3 as the test system, report measured log10(IC50) of CCC[C@H](O)C[C@@H]1Cc2cc(OC)c(OC)c(O)c2C(=O)O1 [FUSARENTIN 6,7-DIMETHYLETHER] .
2.06

* * *

- Test system: HL-60
- Experiment description: Antioxidant activity in human HL60 cells assessed as inhibition of TPA-induced superoxide anion radical production
- Type: functional, cell-based
Observed property: IC50

Guide cases for IC50, answers given:
Please list IC50 recorded for the compound "CCC[C@@H](O)C[C@H]1OC(=O)c2c(cc(OC)c(OC)c2O)[C@H]1O"
> 122 µM

Give the reported IC50 for this compound. "CCC[C@H]1C[C@H]2OC(=O)c3c(cc(OC)c(O)c3O)[C@H]2O1"
> 136 µM

Specify IC50 for CCCC(=O)CC[C@H]1OC(=O)c2c1cc(OC)c(OC)c2O [COLLETOTRIALIDE] and stop.
> 130 µM

Note down IC50 recorded for CCC[C@H]1C[C@H]2OC(=O)c3c(cc(OC)c(OC)c3O)[C@H]2O1 [MONOCERIN]
> 130 µM

Next:
For the compound CCC[C@H](O)C[C@@H]1Cc2cc(OC)c(OC)c(O)c2C(=O)O1 [FUSARENTIN 6,7-DIMETHYLETHER] , report IC50.
> 128 µM

Answer with reported IC50 of CCC[C@H](O)C[C@@H]1Cc2cc(OC)c(O)c(O)c2C(=O)O1 [FUSARENTIN 6-METHYL ETHER]
> 135 µM
